target: Jak2 (UniProt O60674); test: phosphorylation enrichment, bacterial display (enrichment ratio); higher = better substrate or ligand; peptides without Tyr show the background
Sequence (O60674 whole entry, looked up): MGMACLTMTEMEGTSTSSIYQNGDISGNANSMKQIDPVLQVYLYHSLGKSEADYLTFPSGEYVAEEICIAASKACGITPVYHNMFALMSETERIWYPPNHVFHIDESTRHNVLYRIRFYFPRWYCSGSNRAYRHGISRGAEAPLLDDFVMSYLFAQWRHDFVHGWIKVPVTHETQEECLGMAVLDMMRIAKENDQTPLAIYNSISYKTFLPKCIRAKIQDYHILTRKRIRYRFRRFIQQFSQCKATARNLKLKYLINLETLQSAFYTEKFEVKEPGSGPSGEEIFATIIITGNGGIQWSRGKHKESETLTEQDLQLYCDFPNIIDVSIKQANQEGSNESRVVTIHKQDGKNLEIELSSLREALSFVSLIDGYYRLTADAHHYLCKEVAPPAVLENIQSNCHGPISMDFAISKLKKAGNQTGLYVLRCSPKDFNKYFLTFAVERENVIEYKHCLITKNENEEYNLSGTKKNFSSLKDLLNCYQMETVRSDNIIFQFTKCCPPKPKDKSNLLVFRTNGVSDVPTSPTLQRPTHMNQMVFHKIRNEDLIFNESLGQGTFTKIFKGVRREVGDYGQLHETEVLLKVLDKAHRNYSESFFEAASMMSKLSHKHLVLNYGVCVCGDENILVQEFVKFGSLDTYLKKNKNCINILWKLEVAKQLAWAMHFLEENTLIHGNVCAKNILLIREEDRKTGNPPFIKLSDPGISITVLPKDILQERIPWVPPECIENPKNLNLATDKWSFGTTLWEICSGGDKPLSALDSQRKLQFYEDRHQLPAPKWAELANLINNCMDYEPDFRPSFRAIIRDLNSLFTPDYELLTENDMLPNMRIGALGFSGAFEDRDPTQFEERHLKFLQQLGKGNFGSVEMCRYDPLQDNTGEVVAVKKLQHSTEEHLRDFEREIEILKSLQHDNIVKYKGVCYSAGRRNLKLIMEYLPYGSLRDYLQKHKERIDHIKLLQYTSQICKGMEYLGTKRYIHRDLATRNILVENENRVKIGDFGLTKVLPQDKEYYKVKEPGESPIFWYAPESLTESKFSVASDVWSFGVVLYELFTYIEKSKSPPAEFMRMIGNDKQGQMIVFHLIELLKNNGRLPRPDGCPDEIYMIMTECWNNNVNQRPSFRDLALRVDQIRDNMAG
// values below are reported phosphorylation enrichment
Reply with the value as a number alone.

Field: example entries. Status: answers known.
Residue Sequence	Experimental Value
REEKNYKLKET [BCLAF1_Y459]	1.5
SLNAVYPKAGS [OAS3_Y376_R378K]	0.474
ICANKYMVKSC [RPL10_Y75]	0.735
RLLRGYDQSAY [HLA-C_Y137]	0.576
DYYDLYGGEKK [PTPN11_Y66_F71K]	2.36
SVTCTYSPALT [TP53_Y126_N131T]	1.6
HNGVSYFINLC [IGF2R_Y2024_YF]	2.2
PTTKTYLPHFD [HBA1_Y43_F44L]	0.456

Find the recorded phosphorylation enrichment belonging to LAVVDYIRRQK [ATM_Y1915_M1916I] and report it.
0.855

Find the recorded phosphorylation enrichment belonging to HHIDYYKKTTN [FGFR1_Y654] and report it.
0.592

* * *

target: Jak2 (UniProt O60674); test: phosphorylation enrichment, bacterial display (enrichment ratio); higher = better substrate or ligand; peptides without Tyr show the background
Quantity Name: phosphorylation enrichment
Reply with the value as a number alone.

Field: example entries. Status: answers known.
Residue Sequence	Target System	Quantity Name	Experimental Value
IRTDAYVQAMT [RPE65_Y89_R91Q]	Jak2 (UniProt O60674)	phosphorylation enrichment	0.529
EERNPYFSSAR [MCCC2_Y520_G517R_YF]	Jak2 (UniProt O60674)	phosphorylation enrichment	0.779
KNITEYCRHLI [RECQL_Y492_D495H]	Jak2 (UniProt O60674)	phosphorylation enrichment	0.88

Find the recorded phosphorylation enrichment belonging to DDKQPYEKKAE [HMGB1_Y144_A149E] and report it.
0.921

Find the recorded phosphorylation enrichment belonging to IIWDSYTTNKM [GNB4_Y85] and report it.
0.873

Find the recorded phosphorylation enrichment belonging to TQRPYYKGGGG [TYROBP_Y112] and report it.
0.537

Find the recorded phosphorylation enrichment belonging to FNNPAYYVLEG [INPPL1_Y986] and report it.
4.76

Find the recorded phosphorylation enrichment belonging to FAKTQYPDVFA [CRX_Y63_YF] and report it.
0.724

Find the recorded phosphorylation enrichment belonging to EALDFYGEVKT [PTEN_Y155_R159K] and report it.
1.6

* * *

biological target: Grb2 SH2 (UniProt P62993); assay: SH2 binding enrichment of the phosphorylated peptide, bacterial display (enrichment ratio); higher = better substrate or ligand; peptides without Tyr show the background
Sequence (P62993 whole entry, looked up): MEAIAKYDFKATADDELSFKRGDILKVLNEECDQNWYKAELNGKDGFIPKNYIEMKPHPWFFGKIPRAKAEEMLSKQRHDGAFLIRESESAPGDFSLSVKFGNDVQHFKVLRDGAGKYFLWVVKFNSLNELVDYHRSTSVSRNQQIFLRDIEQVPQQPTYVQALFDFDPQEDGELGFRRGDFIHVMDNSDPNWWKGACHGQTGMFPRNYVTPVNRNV
Classification by SH2 binding enrichment follows these ranges: lower = under 0.8, middle = from 0.8 up to 1, upper = 1 and over

State the class of the sequence shown: LKSEMYQKLFK [RGS13_Y146_L150F]
middle

* * *

target: Fes (UniProt P07332); assay: phosphorylation enrichment, bacterial display (enrichment ratio); higher = better substrate or ligand; peptides without Tyr show the background
Sequence (P07332 whole entry, looked up): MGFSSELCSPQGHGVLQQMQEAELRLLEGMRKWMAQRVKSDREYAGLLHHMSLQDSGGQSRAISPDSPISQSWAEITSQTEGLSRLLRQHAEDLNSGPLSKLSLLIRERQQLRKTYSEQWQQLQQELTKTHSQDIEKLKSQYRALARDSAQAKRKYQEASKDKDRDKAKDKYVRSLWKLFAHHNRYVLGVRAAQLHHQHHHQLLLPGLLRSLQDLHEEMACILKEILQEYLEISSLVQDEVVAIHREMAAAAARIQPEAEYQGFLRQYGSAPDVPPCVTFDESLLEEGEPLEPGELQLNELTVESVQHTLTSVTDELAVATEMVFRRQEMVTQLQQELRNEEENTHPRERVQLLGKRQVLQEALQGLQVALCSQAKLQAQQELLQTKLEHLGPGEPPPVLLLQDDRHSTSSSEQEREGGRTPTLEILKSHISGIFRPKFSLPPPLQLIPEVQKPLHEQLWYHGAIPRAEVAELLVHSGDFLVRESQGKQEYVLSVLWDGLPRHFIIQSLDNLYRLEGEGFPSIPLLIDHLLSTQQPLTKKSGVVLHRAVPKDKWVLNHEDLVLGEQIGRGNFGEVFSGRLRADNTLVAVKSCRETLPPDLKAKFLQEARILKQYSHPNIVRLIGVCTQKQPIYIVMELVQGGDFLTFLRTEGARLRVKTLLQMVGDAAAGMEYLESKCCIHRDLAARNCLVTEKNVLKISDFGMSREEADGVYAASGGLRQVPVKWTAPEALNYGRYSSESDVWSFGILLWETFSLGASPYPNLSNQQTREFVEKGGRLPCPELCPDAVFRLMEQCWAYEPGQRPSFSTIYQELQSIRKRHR
Quantity Name: phosphorylation enrichment
Reply with the value as a number alone.

Field: example entries. Status: answers known.
Residue Sequence	Experimental Value
DISEPYEVFRI [IRF8_Y107_K108E_YF]	1.15
HFPDVYAWEQL [ALX3_Y181_R183W_YF]	1.46
TFWKKYCTFWK [CCDC70_Y125_R126C]	0.794
AQINLYQDVML [ZNF806_Y33]	2.83
PMDTYYDSTRG [DYNC2H1_Y2231]	1.31

Find the recorded phosphorylation enrichment belonging to SQAPGYSFTAA [CYCS_Y47_G42S_YF] and report it.
0.701

Find the recorded phosphorylation enrichment belonging to DWWQEYVLNES [TGM1_Y267_R264W] and report it.
1.51

Origin of the recorded values: the supplement of paper PMC10065799
